- Test system: SR leukemia
- Test Summary: NCI tumour cell line growth inhibition, 48 h
Below, each entry is listed alongside its reported TGI.

Sample records with TGI:
Compound	Test Value
CC(=O)OC[C@@]1(C)[C@@H]2[C@@H]3[C@@]4(CO[C@]3(C)C(=O)[C@@]3(O)C[C@H](C)[C@H](OC(C)=O)[C@@H]3[C@H]4OC(C)=O)[C@H](OC(=O)c3ccccc3)C[C@@H]21	> 100 µM
O=C(O)CP(=O)(O)O	> 100 µM
CC(=O)c1ccc(NC(=O)C(=O)C(C(=O)c2ccc(Cl)c(Cl)c2)C2OC(=O)c3ccccc32)cc1 (stereo not drawn)	> 100 µM
C[C@]12CC[C@H]3[C@@H](CCC4=CC(=O)CC[C@@]43C)[C@@H]1CC[C@@H]2C(=O)Nc1ccc([N+](=O)[O-])c(C(F)(F)F)c1	87.4 µM
CCC[CH2][Sn]1([CH2]CCC)[O]CC(CN2CCOCC2)[O]1 (stereo not drawn)	6.13 µM

INPUT: State its TGI for this compound: CSc1nc(C)c(Br)c(=O)n1C1OC(COC(C)=O)C(OC(C)=O)C(OC(C)=O)C1OC(C)=O (stereo not drawn)
OUTPUT: > 100 µM

INPUT: State its TGI: NC(=O)Nc1c([N+](=O)[O-])cc(C(F)(F)F)cc1[N+](=O)[O-]
OUTPUT: > 100 µM

INPUT: Hello, please tell me recorded TGI for this one: NC(=O)CCC(NC(=O)Cc1ccccc1)C(=O)O (stereo not drawn) (tested in a mixture with another compound)
OUTPUT: > 8130 µM

INPUT: Please give the documented TGI of N#C/C(=C1C=C/C(=N\O)C(Cl)=C\1)c1ccccc1
OUTPUT: 11.3 µM

INPUT: Tell me measured TGI for CSc1nc2c(c(=O)[nH]1)N=C(c1ccc(Cl)cc1)CC(c1ccccc1)N2 (stereo not drawn) please.
OUTPUT: > 100 µM

INPUT: Report TGI for CCC1c2[nH]c3ccccc3c2C[C@H]2C(=O)NC(CCCCNC(=O)OC(C)(C)C)C(=O)N12 (stereo partly drawn)
OUTPUT: 92.8 µM

INPUT: Provide measured TGI value, entry: CNCCCNC1(c2cc3ccccc3s2)CCCCC1
OUTPUT: 3.44 µM

INPUT: Give recorded TGI. O=C(CN1C(=O)S/C(=C\C(Cl)=C\c2ccccc2)C1=O)NCCc1ccc(O)cc1
OUTPUT: > 100 µM

INPUT: Tell me measured TGI for CCCC(=O)NC(C(=O)OCC)(N1CCOCC1)C(F)(F)F (stereo not drawn) please.
OUTPUT: > 100 µM

INPUT: Determine its reported TGI: CN=C(N)/N=C(\N)Nc1cc2ccccc2c2ccccc12
OUTPUT: 47.8 µM

INPUT: Provide TGI value for the following compound: CS(=O)(=O)c1ccc(Oc2cc(F)cc(C#N)c2)c2c1[C@H](O)C(F)(F)C2
OUTPUT: > 100 µM

INPUT: Give the measured TGI for Cc1c(NC(=O)c2cc([N+](=O)[O-])cc([N+](=O)[O-])c2)c(=O)n(-c2ccccc2)n1C
OUTPUT: > 100 µM

###

The compounds listed here are annotated with their log10 TGI.
- Tested on: TK-10 renal
- Test Summary: NCI tumour cell line growth inhibition, 48 h
For clarity, the numbers are log10 values of TGI expressed in µM.

Worked cases, answers included:
Compound	log10 TGI
O=C(NCCNc1nccc(-c2c(-c3cccc(O)c3)nc3sccn23)n1)Nc1cccc(C(F)(F)F)c1	1.05
O=C1c2cc([N+](=O)[O-])cc3cc([N+](=O)[O-])cc(c23)C(=O)N1CCCNCCNCCCN1C(=O)c2cc([N+](=O)[O-])cc3cc([N+](=O)[O-])cc(c23)C1=O	0.85
O=C(NCCNc1nccc(-c2c(-c3ccc(F)cc3)nc3sccn23)n1)c1ccccc1	1.69

// switching to the query compound
INPUT: Provide measured log10 TGI value, entry: Cc1ccc([N+](=O)[O-])cc1S(=O)(=O)Nc1ccc(C2=NN(C(=O)c3ccccc3)C(c3cccs3)C2)cc1 (stereo not given)
OUTPUT: 1.88

###

- Test system: BT-549 breast
- Test Summary: NCI tumour cell line growth inhibition, 48 h
Test Readout: TGI (µM)
# value in µM; strip the unit string

Compound Structure String	Measured Target	TGI [µM]
Cc1ccc2[nH]c3c(c2c1)CCC/C3=N/N=C(N)N	BT-549 breast	41.1
O=[N+]([O-])c1ccc(N/N=C(\c2ccccc2)c2ccccn2)nc1	BT-549 breast	87.1
Cc1cc2cc3cc(C)c(N)cc3[n+](C)c2cc1N	BT-549 breast	9.31

Alright, here's another compound for you.
INPUT: Find the measured TGI of CC1(C)N=C(N)N=C(N)N1c1cccc(CCCCOc2ccccc2)c1 and report it.
OUTPUT: 16.8

###

GI50 values by entry
- Test system: SK-OV-3 ovarian
- Test Summary: NCI tumour cell line growth inhibition, 48 h

Illustrative cases are given below, each with its answer.
Molecule	GI50
C/C(=C\CCc1ccsc1)CC/C=C(\C)CCCN1CCC(CO)CC1	5150 nM
CCCC1=C(C(=O)OCC)C(c2ccccc2OC)C(C#N)=C(N)O1 (stereo unspecified)	> 100000 nM
O=C1/C(=C/c2ccccc2F)CN(C(=O)C(Cl)Cl)C/C1=C\c1ccccc1F	1650 nM

INPUT: Write down measured GI50 (SK-OV-3 ovarian) for this molecule. Cc1cc2cc3cc(C)c(N)cc3[n+](C)c2cc1N
OUTPUT: 2090 nM

INPUT: Under SK-OV-3 ovarian, report GI50 for CCC[CH2][Sn]1([CH2]CCC)[O]CC(CN2CCOCC2)[O]1 (stereo unspecified)
OUTPUT: 12300 nM

INPUT: Supply GI50 measured with SK-OV-3 ovarian for S=C(c1ccc2c(c1)OCO2)N1CCN(c2cccc(Cl)c2)CC1 .
OUTPUT: 2910 nM

###

Known TGI of a selection of compounds
- Test system: MDA-N
- Test Summary: NCI tumour cell line growth inhibition, 48 h

// below: answered compounds
Compound	Test Value
COc1cc([C@@H]2c3cc4c(cc3[C@@H](OC3OC5COC(C)OC5C(OC(=O)CN5CCN(C)CC5)C3OC(=O)CN3CCN(C)CC3)C3COC(=O)[C@@H]32)OCO4)cc(OC)c1OC(=O)CN1CCN(C)CC1 (stereo partly drawn)	> 100 µM
c1ccc2sc(C3(N4CCC5(CC4)OCCO5)CCCCC3)cc2c1	> 100 µM
CN=C(N)/N=C(\N)Nc1cc2ccccc2c2ccccc12	27.8 µM

INPUT: Determine reported TGI for CC(C)(O)CO/N=C1\C(c2c(O)[nH]c3ccccc23)=Nc2ccccc21 ; test system: MDA-N.
OUTPUT: > 45 µM

INPUT: Specify TGI for CC1=NN(C(=O)CC(=O)Nc2cccc(C)c2)C(=O)C1N=Nc1ccc(S(=O)(=O)c2ccc(N=NC3C(=O)N(C(=O)CC(=O)Nc4cccc(C)c4)N=C3C)cc2)cc1 (stereo not drawn) , system MDA-N.
OUTPUT: > 100 µM

INPUT: For MDA-N, give the measured TGI of the entry O=C1N=NC(=O)N1c1cc(C(F)(F)F)cc(C(F)(F)F)c1
OUTPUT: 20.4 µM

###

- Tested on: SK-OV-3 ovarian
- Test Summary: NCI tumour cell line growth inhibition, 48 h
Test Readout: GI50

Compound	Measured Target	Test Readout	Test Value
CC(=O)OC1Oc2cc(C)c(C)cc2-c2oc(=O)c(-c3ccc(F)cc3)cc21 (centres undefined)	SK-OV-3 ovarian	GI50	4.38 µM
COc1ccc(CCN2CCC(Nc3nc4ccccc4n3Cc3ccc(F)cc3)CC2)cc1	SK-OV-3 ovarian	GI50	1.9 µM
COc1ccc2c(c1)/C(=C\c1c(Cl)n(C)c3ccccc13)C(=O)N2	SK-OV-3 ovarian	GI50	0.86 µM

Shifting focus to the compound that follows.
INPUT: For the compound N=c1n(Cc2ccccc2)c(N)cc(=O)n1Cc1ccccc1 , give its measured GI50 value.
OUTPUT: 2.99 µM

###

- Tested on: SNB-19 CNS
- Test Summary: NCI tumour cell line growth inhibition, 48 h
Test Readout: TGI

Solved cases (2 shown):
Compound	Test Value
COc1cc2c(cc1OC)C1Cc3cc(OC)c(OC)cc3C(C2)O1	> 100 µM
NC(=O)CCC(NC(=O)Cc1ccccc1)C(=O)O (stereo not given) (tested in a mixture with another compound)	> 8130 µM

Let us examine a further case.
INPUT: # return recorded TGI for entry CCOC(=O)N[C@@H]1C2CC(=O)C(O2)[C@@H]1OC (stereo not given in full)
OUTPUT: > 100 µM

###

- System: SN12C renal
- Test Summary: NCI tumour cell line growth inhibition, 48 h
Property: TGI; scope: individual molecules

Known TGI results, listed for orientation:
Molecule	TGI
COc1cc(C2S/C(=C/c3ccccc3)C(=O)N2c2cc(Cl)c(Cl)cc2Cl)cc(OC)c1OC (stereo unspecified)	> 100 µM
COc1c(O)c(O)c2c(c1O)C(=O)c1cc(C)cc(O)c1C2=O	> 100 µM
C/C(=N/c1[nH]c(=O)cc2c1C(=O)CC2)N(C)C	> 200 µM
O=S(=O)(CCNCc1ccc(-c2ccc3ncnc(Nc4ccc(OCc5cccc(F)c5)c(Cl)c4)c3c2)o1)c1ccccc1	> 25 µM
CCOC(=O)N[C@@H]1C2CC(=O)C(O2)[C@@H]1OC (stereo partly specified)	> 100 µM
CCn1c(-c2nonc2N)nc2cncc(C(=O)NCCNC)c21	> 25 µM

INPUT: Give the reported value of TGI for this record: Cn1c(=O)n2c(-c3ccccc3)c(-c3ccccc3)n2c1=O
OUTPUT: > 100 µM

INPUT: Report TGI, nothing else, for this molecule: N#CCCSC(=S)C1CCCC1=N (stereo unspecified)
OUTPUT: > 100 µM

INPUT: Identify measured TGI corresponding to Cc1nn(-c2ccccc2)c2nc3c(nc12)C1=NCCN1C(c1ccc(Cl)cc1)N3 (stereo unspecified)
OUTPUT: 25.2 µM

INPUT: Please report TGI for the following molecule: Cc1c(NC(=O)c2cc([N+](=O)[O-])cc([N+](=O)[O-])c2)c(=O)n(-c2ccccc2)n1C
OUTPUT: > 100 µM

INPUT: Name the recorded TGI of the item CCCNC(=O)Cn1c(C)cc2ccccc21 in your answer.
OUTPUT: > 100 µM
